In this section, each of the sequences is paired with its reported apparent KD of MS2 coat protein.
- Test system: MS2 coat protein
- test.description: apparent KD of MS2 coat protein; higher = weaker reporter binding
- stated.conditions: Eterna round: R107; input ligand: arginine 13.2 mM
Answer format: numeric, nM implied, no suffix.

sequence.input: ACAUGAGGAUCACCCAUGUACAUCACCCGACGAGGACCGGUACGGCCGCCACUCGGGUAUAUAUAUACAUCGGGUGGUUUUGCAU [a15jan]
assay.metric: apparent KD of MS2 coat protein
unit.abbreviation: nM
reading: 40.7

sequence.input: AAUGUAUUCCACAUGAGGAUCACCCAUGUGCGAGGACCGGUACGGCCGCCACUCGGUGUUGGGAUCUGUUCUGAAUACAUUAAUG [XTryp A #23]
assay.metric: apparent KD of MS2 coat protein
unit.abbreviation: nM
reading: 30.8

sequence.input: UAACGGCACUGAAGGAGCGAGUUGACAAACAUGAGGAUCACCCAUGUUAUGGGUUGUUAAUCUCAGGUAGGUCGCAGUUGUCGUA [Same State Arginine B GF 20]
assay.metric: apparent KD of MS2 coat protein
unit.abbreviation: nM
reading: 129

Quick check: apparent KD of MS2 coat protein of AAAUAGGUAGGAGAUACCAGAUACGUUAACAUGAGGAUCACCCAUGUGUAUGCACUUAGUGUCCCUUGGCAGCUCGAGGAUCUGG [#18 Same State - Theophylline B] ?
23.3

Quick check: apparent KD of MS2 coat protein of AUAACAUGAGGAUCACCCAUGUUGAGUGAUACCAGACUAUGUAAUGUCCCUUGGCAGCACAAGUAAAGUUAUAAAUAAUGAUAGA [#12 SameState-TheophyllineA] ?
48.2

Quick check: apparent KD of MS2 coat protein of ACGAACUGUAGUGAUACCAGACGUACAUGAGGAUCACCCAUGUUGUAAACAUGGUUAAUAGUCCCUUGGCAGCACAGUUAGUUCG [JR_ExcTheophyB_Sub002] ?
105

Quick check: apparent KD of MS2 coat protein of UAUCGUCAGACGGCCGCCACUAGAACAUGAGGAUCACCCAUGUACGGCCGCCCGGUGUGAUCCACUAGGACCGGGUCUGACGAAU [(Trp1)-(Ms2)-(T)'-(M)'-(Trp2)_Design23] ?
39.3

Quick check: apparent KD of MS2 coat protein of AAUCGGGAUGGUCAAGGGUAUGCUAUAGAUACCAGUGCAGAGAAACACCCUUGGCAGCUGUGGAACAUGAGGAUCACCCAUGUAG [Theo A Ex t4] ?
17.2

Quick check: apparent KD of MS2 coat protein of AAACCAAGGGAUGGGUGCCUUGGUAGUGAUACCAGCCUGGAAACAGGCCCUUGGCAGCACAUGAGGAUCACCCAUGUGAAAUAAU [TheoAX 18#OpenEnded] ?
22.9

Quick check: apparent KD of MS2 coat protein of GAUAUAUAACGAAGGAGCGGCCCUUGAUCCUCAUGAGACAUGAGGAUCACCCAUGUCUCGGGCCAGGUAGGUCGCGUUAUAUAUC [Astros-omei-mod] ?
26.6

Quick check: apparent KD of MS2 coat protein of AGACAUGAGGAUCACCCAUGUAGUAUGGAUACCAGAUCCAGAUUUAUCCCUUGGCAGCUGUGGUACAGUGAUGGAUUGCUCCUAG [Exclusion - Theophylline A (Freestyle 9)] ?
30.4

Quick check: apparent KD of MS2 coat protein of GCGAUGGAGCGAAGGAGCGGCUGUGACUACAUGAGGAUCACCCAUGUACGAUCGUAAGGUAGCCAGGUAGGUCGCGCUCCAUCGC [SSAB NP+V+V2 #17] ?
18.7

Quick check: apparent KD of MS2 coat protein of CAGCCACAUGAGGAUCACCCAUGUGAUGAUACCAGCUUCGUCUUAAGCCCUUGGCAGCAUAUCUCUUUGUUCUCAUACAUAGCAU [theeternabot_sameState_MS2_Theo_A_16] ?
12
